- Test system: α-1,4-glucan lyase
- test-protocol: Substrate specificity of α-1,4-glucan lyase, long term incubation (24 h), continuation of Table IV
- Format: biochemical, Gracilariopsis lemaneiformis
- experimental-parameters: substrate 4 mg ml^-1; 1.64 μg enzyme; 24 h
test-readout: Product released (nmol)
Numeric answer only, unit nmol assumed.

Given the compound OC[C@H]1O[C@@H](O[C@H]2[C@H](O)[C@@H](O)C(O)O[C@@H]2CO)[C@H](O)[C@@H](O)[C@@H]1O (some centres unmarked) [Cellobiose, cellobiose] , what is its reported Product released? 0

Given the compound OC[C@@H](O)[C@@H](O[C@H]1O[C@H](CO)[C@@H](O)[C@H](O)[C@H]1O)[C@H](O)[C@@H](O)CO [Maltitol, maltitol] , what is its reported Product released? 122.4

Given the compound OC[C@H]1O[C@H](O[C@H]2[C@H](O)[C@@H](CO)OC(O)[C@@H]2O)[C@H](O)[C@@H](O)[C@@H]1O (some centres unmarked) [Nigerose, nigerose] , what is its reported Product released? 13452.8

Given the compound OC[C@H]1O[C@H](OC[C@H]2O[C@H](O[C@H]3[C@H](O)[C@@H](O)C(O)O[C@@H]3CO)[C@H](O)[C@@H](O)[C@@H]2O)[C@H](O)[C@@H](O)[C@@H]1O (some centres unmarked) [Panose, panose] , what is its reported Product released? 13465.6

Given the compound OC[C@H]1O[C@H](OC[C@H]2OC(O)[C@H](O)[C@@H](O)[C@@H]2O)[C@H](O)[C@@H](O)[C@@H]1O (some centres unmarked) [Isomaltose, isomaltose] , what is its reported Product released? 0
